All figures here come from PubChem BioAssay (NCI).

System: IGROV1 ovarian
test.details: NCI-60 one-dose screen, 48 h (100 = growth as untreated, 0 = no growth, -100 = all killed)
experimental.parameters: 10 µM unless noted
Experimental: Growth inhibition of the IGROV1 human tumor cell line is measured as a screen for anti-cancer activity. Cells are grown in 96 well plates and exposed to the test compound for 48 hours. Compounds are tested at a single concentration, which is 10^-5 M for most compounds. The reported endpoint is percent growth (GI% or GIPRCNT), where numbers from 0 - 100% represent growth inhibition, and numbers from -100% - 0 represent cell death. For example, a value of 40 represents 60% growth inhibition. […]
About 83,000 compounds went through this panel and 20% of them were active in at least one assay; those are over-represented in the sample as a whole.
Returns criterion met if the recorded growth is greater than or equal to 50%, and criterion not met otherwise.

Hello, I need to know if "CCCCCCN(CCCCCC)CCC(=O)Nc1ccc(S(=O)(=O)c2ccc(NC(=O)CCN(CCCCCC)CCCCCC)cc2)cc1" has measured growth not below 50%. Thanks!
criterion met

Now the compound CCCCCCC(C)N(CC(C)(C)O)C(=O)c1ccc([N+](=O)[O-])cc1 (stereo unspecified)
criterion met

Now the compound "Cc1c(C(N)=O)sc2c1c(=O)n(Cc1ccccc1)c1nnc(S(C)(=O)=O)n21"
criterion met

Now the compound "O=C(/C=C/c1cccc(O)c1)c1cccc(-n2cc(-c3ccc(Cl)cc3)[nH]c2=O)c1"
criterion not met

Now the compound "N=c1c2c(=O)n3c(nc2nc2sc4ccc(Cl)cc4n12)-c1ccccc1Sc1ccccc1-3"
criterion not met

Now the compound "CC(=O)O.[In]"
criterion met

Now the compound COc1ccc2cc(C(C)C(=O)Nc3ccc(S(=O)(=O)Nc4cc(C)on4)cc3)ccc2c1 (stereo unspecified)
criterion met

Now the compound "Cc1ccc(C(=O)Nc2ccc(CN3CCN(C)CC3)c(C(F)(F)F)c2)cc1C#Cc1cnc(N)c2ccc(F)cc12"
criterion not met

Now the compound "CCOC(=O)NNc1[nH]c(-c2ccc(OC)cc2)cc1C#N"
criterion met

Now the compound "CCCCCCCCCCCCCCCCCC1=NCCN1CS(=O)(=O)O"
criterion not met

Now the compound "CCc1c(C)c2ccc(OCC(=O)N=Nc3c(O)[nH]c4ccccc34)c(C)c2oc1=O"
criterion not met

Now the compound "O=C(/C=C1\C(=O)N(Cc2ccccc2)c2ccccc21)c1ccc(OCCN2CCCCC2)cc1"
criterion not met

Now the compound "O=C(Oc1ccccc1)c1ccccc1Cl"
criterion met

Now the compound "c1ccc(C(=NNc2nc3ccccc3o2)c2ccccn2)nc1"
criterion not met

Now the compound "CCOc1ccc(Br)cc1/C=C(\C#N)c1ccc([N+](=O)[O-])cc1"
criterion met

Now the compound "COc1ccccc1Cn1cc2c(c1)-c1oncc1CC2"
criterion not met

Now the compound "Cc1nn(-c2ccccc2)c(N)c1N=C1NC(=O)/C(=C/c2ccc(Cl)cc2)S1"
criterion met

Now the compound "C[C@@H](c1ccc2c(c1)[nH]c1ccc(Cl)cc12)c1nc2ccccc2[nH]1"
criterion met

Now the compound CCCCCCCCCC(C)NC(=O)CCl (stereo unspecified)
criterion not met

Now the compound "C=C(C)[C@@H]1CC[C@]2(COC(=O)c3ccccc3C(=O)O)CC[C@]3(C)[C@H](CC[C@@H]4[C@@]5(C)CCCNC(C)(C)[C@@H]5CC[C@]43C)[C@@H]12"
criterion met
